Values were extracted from ChEMBL document CHEMBL5620385.

PROCEDURE_SUMMARY: Volume of distribution in BALB/c mouse at 5 mg/kg, iv measured for 6 hrs by LC-MS/MS analysis
Format: ADME, organism-based
CONDITIONS: in vivo
OBSERVATION_TYPE: Vd (L/kg)
The reply should be a number in L/kg, with the unit left off.

Vd for COc1cc(O)c2c(=O)cc(/C=C/c3c(F)cccc3Cl)oc2c1[C@H]1CC[N+](C)([O-])C[C@H]1O (stereo partly specified) ?
0.8

====

TARGET_OF_ASSAY: CDK9/Cyclin K (Homo sapiens) (UniProt P50750+O75909)
PROCEDURE_SUMMARY: Inhibition of CDK9/cyclin K (unknown origin) at 10 uM by ADP-Glo assay relative to control
Type: protein-complex assay
Listing of entries alongside the reported inhibition.
Give your result in % as a bare value.

1) COc1cc(O)c2c(=O)cc(/C=C/c3cccc(Cl)c3F)oc2c1[C@H]1CC[N+](C)([O-])C[C@H]1O (stereo partly drawn): 59.6
2) COc1cc(O)c2c(=O)cc(/C=C/c3c(F)ccc(F)c3Cl)oc2c1[C@H]1CC[N+](C)([O-])C[C@H]1O (stereo partly drawn): 41.8
3) C[N+]1([O-])CC[C@H](c2c(O)cc(O)c3c(=O)cc(/C=C/c4cccc(Cl)c4)oc23)[C@H](O)C1 (stereo partly drawn): 37.3
4) C[N+]1([O-])CC[C@H](c2c(O)cc(O)c3c(=O)cc(/C=C/c4ccccc4I)oc23)[C@H](O)C1 (stereo partly drawn): 64.8
5) C[N+]1([O-])CC[C@H](c2c(O)cc(O)c3c(=O)cc(/C=C/c4ccc(Cl)cc4Cl)oc23)[C@H](O)C1 (stereo partly drawn): 43.2

Could you tell me which inhibition is on file for C[N+]1([O-])CC[C@H](c2c(O)cc(O)c3c(=O)cc(/C=C/c4ccccc4)oc23)[C@H](O)C1 (stereo partly drawn) ?
44.2

// query: C[N+]1([O-])CC[C@H](c2c(O)cc(O)c3c(=O)cc(/C=C/c4ccccc4F)oc23)[C@H](O)C1 (stereo partly drawn)
58.9

Query Cc1cc(=O)c2c(O)cc(O)c([C@H]3CC[N+](C)([O-])C[C@H]3O)c2o1 (stereo partly drawn) next
37.9
